Origin of measurements: PubChem BioAssay (NCATS)

# Test system: CP256
# TEST_NAME: qHTS profiling for inhibitors of Plasmodium falciparum proliferation (AID 504749); also: nearly all actives have a fitted effect of over 60% in size
# APPLIED_CONDITIONS: P. falciparum in erythrocytes, SYBR Green DNA, 72 h; series mostly up to 28.7 µM
# Protocol: NIH National Institute of Allergy and Infectious Diseases [NIAID] NIH Chemical Genomics Center [NCGC] […] Because mature erythrocytes lack DNA, only Plasmodium-derived DNA is detected. NCGC Assay Protocol Summary: The SYBR Green viability assay was adapted from a method described previously (Plouffe et al., 2008). […] The following morning, fluorescence intensity at 485(14) nm excitation and 535(25) nm emission wavelengths was measured on an EnVision (Perkin Elmer) plate reader. […]
Results filed as inconclusive are left out. Active and inactive are the calls of the source. Calls follow the shape of the dose curve; as a rule, active = well fitted inhibition curve with a large enough effect; inconclusive = small, poorly fitted or top-dose-only effect; inactive = flat fitted curve, though single readings scatter. Where a SMILES comes first, the peptide text is derived from it. [ ]: non-standard residue; d: D form. pGlu = O=C1CC[C@@H](C(=O)O)N1; Thz = O=C(O)[C@@H]1CSCN1
Outcomes: Y (active), N (inactive)

| COMPOUND | TESTED_ON | CLASS_LABEL |
| --- | --- | --- |
| N=c1ccn2c(n1)O[C@H]1[C@H](O)[C@@H](CO)O[C@H]12 | CP256 | N |
| Cc1ccc(C(=O)c2ccc(CC(=O)O)n2C)cc1 | CP256 | N |
| O=C(O)[C@H](CC(=O)N1C[C@H]2CCCC[C@H]2C1)Cc1ccccc1 | CP256 | N |
| c1ccc2sc(SSc3nc4ccccc4s3)nc2c1 | CP256 | N |
| CCCOC(=O)c1ccc(O)cc1 | CP256 | N |
| c1ccc2sc(SN3CCOCC3)nc2c1 | CP256 | N |
| CN1CCN(c2cc3c(nn2)Oc2ccccc2N3C)CC1 | CP256 | N |
| Cc1ccc(O)c(-n2nc3ccccc3n2)c1 | CP256 | N |
| Cc1[nH]cnc1CN1CCc2c(c3ccccc3n2C)C1=O | CP256 | N |
| COc1cc(/C=C/C(=O)N2CCN(CC(=O)N3CCCC3)CC2)cc(OC)c1OC | CP256 | N |
| Cc1c(Nc2ncccc2C(=O)O)cccc1C(F)(F)F | CP256 | N |
| COC(=O)C1=C(C)NC(C)=C(C(=O)OCC(C)C)C1c1ccccc1[N+](=O)[O-] (stereo not given) | CP256 | Y |
| CC(N)C(=O)OC(C)(C)Cc1ccc(Cl)cc1 (stereo not given) | CP256 | N |
| O=C(/C=C/c1ccccc1)NCCO | CP256 | N |
| Cc1ccccc1CNc1ncnc2c1ncn2C1OC(CO)C(O)C1O (stereo not given) | CP256 | N |
| O=C1CC[C@@H](C(=O)N2CSC[C@H]2C(=O)O)N1 ([pGlu]-[Thz]-OH) | CP256 | N |
| COc1cc2c3cc1Oc1cc(ccc1O)C[C@@H]1c4c(cc(OC)c(O)c4Oc4ccc(cc4)C[C@@H]3N(C)CC2)CC[N+]1(C)C | CP256 | N |
| CCC1C(=O)OCC1Cc1cncn1C (stereo not given) | CP256 | N |
| O=C(O)COc1ccc(C(=O)c2cccs2)c(Cl)c1Cl | CP256 | N |
| O=C(O)/C=C/C(O)c1ccc(Cl)cc1 (stereo not given) | CP256 | N |
| O=C(OCc1ccccc1)c1ccccc1 | CP256 | N |
| C=CCN1C(=O)C(CC(C)C)NC1=S (stereo not given) | CP256 | N |
| CCCCCCCCCCCCCCCC(=O)OC(C)C | CP256 | N |
| C=CCCCCCCCCC(=O)O | CP256 | N |
| CCOc1ccc2nc(S(N)(=O)=O)sc2c1 | CP256 | N |
